Every entry's value here was drawn from ChEMBL document CHEMBL1671814.

Target or system Dipeptidyl peptidase 2 (Rattus norvegicus): recorded pIC50 listed per item.
Hey, just a heads up that pIC50 is the negative log base 10 of the concentration in molar.

In [3]: df
Out[3]:
                               given_smiles  readout_kind  quantitative_result
0   CCCCc1nc(C)c(C(=O)O)c(-c2ccc(C)cc2)c1CN         pIC50                 4.96
1  Cc1ccc(-c2c(CN)c(CC(C)(C)C)nc(C(C)C)c2C(=O)O)cc1         pIC50                 5.80
2  CCCc1nc(CC(C)(C)C)c(CN)c(-c2ccc(C)cc2)c1C(=O)O         pIC50                 5.70
3  Cc1ccc(-c2c(CCC(=O)O)c(C)nc(CC(C)C)c2CN)cc1         pIC50                 5.96

Now, please, on to the next molecule.
Asked: Provide the documented pIC50 with Dipeptidyl peptidase 2 (Rattus norvegicus) as the system for Cc1ccc(-c2c(CN)c(CC(C)C)nc(C)c2C(=O)O)cc1
Sequence (Q9EPB1 whole entry): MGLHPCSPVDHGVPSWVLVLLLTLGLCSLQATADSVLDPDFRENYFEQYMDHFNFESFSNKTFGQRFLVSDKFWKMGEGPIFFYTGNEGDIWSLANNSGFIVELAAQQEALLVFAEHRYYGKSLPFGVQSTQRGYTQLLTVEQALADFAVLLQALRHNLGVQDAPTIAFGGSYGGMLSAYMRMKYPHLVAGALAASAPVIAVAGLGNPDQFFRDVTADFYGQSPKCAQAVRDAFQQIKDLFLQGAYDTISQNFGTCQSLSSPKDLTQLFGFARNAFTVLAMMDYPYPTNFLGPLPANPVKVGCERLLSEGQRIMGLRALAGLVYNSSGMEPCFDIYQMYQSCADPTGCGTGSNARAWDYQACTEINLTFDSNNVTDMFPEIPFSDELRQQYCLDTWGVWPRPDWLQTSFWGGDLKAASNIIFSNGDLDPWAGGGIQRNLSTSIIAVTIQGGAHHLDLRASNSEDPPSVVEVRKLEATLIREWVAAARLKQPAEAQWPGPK
Given back: 5.25
